Test Method Notes: Ex vivo human plasma stability / release kinetic study of CBD prodrugs
Assay type: in vitro ADME
Measurement Setup: human blood plasma with citrate buffer, over 24 h
Protocol: For the preparation of citrate buffer solution (pH=7.6), 100 ml of HPLC water, 0.25 M sucrose and 40 mM sodium citrate were taken. To construct a calibration curve, […] different concentration such as 0.78, 1.56, 3.12, 6.25, 12.5, 25, 50 mg/ml of CBD based prodrugs and the parent cannabidiol were prepared. […]
Measurement Name: stability / conversion of prodrug in plasma

• C=C(C)[C@@H]1CCC(C)=C[C@H]1c1c(O)cc(CCCCC)cc1OC(=O)CN1CCC(c2ccccc2)CC1 = quite stable
• C=C(C)[C@@H]1CCC(C)=C[C@H]1c1c(O)cc(CCCCC)cc1OC(=O)CN1CCN(c2ccccc2)CC1 = quite stable

---

Test Method Notes: Ex vivo human plasma stability / release kinetic study of CBD prodrugs
Assay type: in vitro ADME
Measurement Setup: human blood plasma with citrate buffer, initial time point
Description: For the preparation of citrate buffer solution (pH=7.6), 100 ml of HPLC water, 0.25 M sucrose and 40 mM sodium citrate were taken. To construct a calibration curve, […] different concentration such as 0.78, 1.56, 3.12, 6.25, 12.5, 25, 50 mg/ml of CBD based prodrugs and the parent cannabidiol were prepared. […]
Measurement Name: concentration of prodrug at the initial time point (Pre-treatment) (%)
Enter your answer as a number in %; do not include the unit.

Example entries begin here.
* C=C(C)[C@@H]1CCC(C)=C[C@H]1c1c(O)cc(CCCCC)cc1OC(=O)CN1CCN(C2CC2)CC1 [Compound A5a] | 51.4
* C=C(C)[C@@H]1CCC(C)=C[C@H]1c1c(O)cc(CCCCC)cc1OC(=O)CN1CCOCC1 [Compound A1a, O-(2-morpholinoacetyl) cannabidiol] | 49.1
* C=C(C)[C@@H]1CCC(C)=C[C@H]1c1c(O)cc(CCCCC)cc1OC(=O)CN1CCN(C)CC1 [Compound A7a] | 49.6
* C=C(C)[C@@H]1CCC(C)=C[C@H]1c1c(O)cc(CCCCC)cc1OC(=O)CN1CCN(C(C)C)CC1 [Compound A6a] | 51.3
* C=C(C)[C@@H]1CCC(C)=C[C@H]1c1c(O)cc(CCCCC)cc1OC(=O)CN1CCCC1 [Compound A10a] | 51.3

Now turn to the next molecule.
Which value of concentration of prodrug at the initial time point (Pre-treatment) has been reported for C=C(C)[C@@H]1CCC(C)=C[C@H]1c1c(O)cc(CCCCC)cc1OC(=O)CN1CCC(O)CC1 [Compound A3a] in the records?
49.2

Reference for the values: patent US20260076982A1
